# koff values compiled below
experimental target: T1, Human CD98 ECD with C-terminal His-tag (human, UniProt P08195 105-529)
T1 construct: The entry includes the linker and the polyhistidine tag; also called huCD98 ECD
T1 sequence: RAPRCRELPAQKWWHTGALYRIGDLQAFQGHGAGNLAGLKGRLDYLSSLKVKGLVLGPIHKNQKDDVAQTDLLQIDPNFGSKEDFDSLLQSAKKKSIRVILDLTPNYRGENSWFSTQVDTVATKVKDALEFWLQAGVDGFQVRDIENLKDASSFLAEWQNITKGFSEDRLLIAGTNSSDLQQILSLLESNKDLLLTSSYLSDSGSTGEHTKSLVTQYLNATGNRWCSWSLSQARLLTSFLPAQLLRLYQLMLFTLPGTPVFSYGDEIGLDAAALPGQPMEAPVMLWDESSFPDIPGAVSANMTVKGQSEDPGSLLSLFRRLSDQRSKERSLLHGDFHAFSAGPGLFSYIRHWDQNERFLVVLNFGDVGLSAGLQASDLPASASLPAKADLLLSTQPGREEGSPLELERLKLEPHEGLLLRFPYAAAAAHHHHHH
protocol summary: SPR (Biacore), antibody captured on anti-Fc surface, CD98 ECD in solution
Method: The binding kinetics of these purified mouse and rat monoclonal anti-CD98 antibodies for purified recombinant CD98 protein (extracellular domain. ECD) were determined by surface plasmon resonance-based measurements made on Biacore T100/T200 instruments (GE Healthcare, Piscataway, N.J.) at 25° C. using an anti-Fc capture assay approach. Binding kinetic measurements were made in the assay buffer HBS-EP+: 10 mM Hepes, pH 7.4, 150 mM NaCl, 3 mM EDTA, 0.05% Tween 20). […]
metric name: koff

* huAb15v3 (antibody, V domains shown, Humanized, further engineered clone of chAb15, converted to IgG and expressed as a full-length antibody) VH: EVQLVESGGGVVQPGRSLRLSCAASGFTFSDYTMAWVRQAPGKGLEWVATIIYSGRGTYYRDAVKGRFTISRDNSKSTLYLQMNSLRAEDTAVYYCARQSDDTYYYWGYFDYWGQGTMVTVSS VL: DIVMTQSPDSLAVSLGERATINCKSSQSLLFSGNQKNYLAWYQQKPGQSPKLLIYWASTRQSGVPDRFSGSGSGTDFTLTIRSLQAEDVAIYYCQQYYGSPYTFGQGTKLEIK | 8.5e-05 s⁻¹
* huAb15v2 (antibody, V domains shown, Humanized, further engineered clone of chAb15, converted to IgG and expressed as a full-length antibody) VH: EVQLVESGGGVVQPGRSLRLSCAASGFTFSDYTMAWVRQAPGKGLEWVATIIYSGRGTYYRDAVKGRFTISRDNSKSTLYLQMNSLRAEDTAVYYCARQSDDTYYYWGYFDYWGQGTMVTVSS VL: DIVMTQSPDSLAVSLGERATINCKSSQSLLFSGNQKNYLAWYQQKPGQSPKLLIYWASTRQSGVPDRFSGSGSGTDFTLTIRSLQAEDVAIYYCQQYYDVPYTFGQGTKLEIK | 4.6e-05 s⁻¹
* huAb15v7 (antibody, V domains shown, Humanized, further engineered clone of chAb15, converted to IgG and expressed as a full-length antibody) VH: EVQLVESGGGVVQPGRSLRLSCAASGFTFSDYTMAWVRQAPGKGLEWVATIIYDARGTYYRDAVKGRFTISRDNSKSTLYLQMNSLRAEDTAVYYCARQSDDTYYYWGYFDYWGQGTMVTVSS VL: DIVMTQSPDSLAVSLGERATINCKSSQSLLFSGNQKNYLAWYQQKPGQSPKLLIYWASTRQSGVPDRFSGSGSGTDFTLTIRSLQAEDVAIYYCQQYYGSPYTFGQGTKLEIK | 0.00021 s⁻¹
